Test system: human induced hepatic stem cells NGC1-1
Test: Quantitative RT-PCR, differentiation with TGF-β signaling inhibitors (Example 11)
Type: cell-based
Conditions: cell samples Nos. 1141-1145: 0.5 μM inhibitor in ReproStem + 10 ng/mL aFGF, no feeder cells, Matrigel, 7 days after seeding; No. 1133 taken as 1

[
  {
    "COMPOUND": "c1ccc(-c2n[nH]cc2-c2ccnc3ccccc23)nc1 [LY-364947]",
    "AFP expression ratio": 369.23
  },
  {
    "COMPOUND": "Cc1cccc(-c2n[nH]cc2-c2ccc3ncccc3n2)n1 [compound 616451]",
    "AFP expression ratio": 747.65
  },
  {
    "COMPOUND": "NC(=O)c1ccc(-c2nc(-c3ccc4c(c3)OCO4)c(-c3ccccn3)[nH]2)cc1 [SB431542]",
    "AFP expression ratio": 394.40
  },
  {
    "COMPOUND": "Cc1cccc(-c2n[nH]cc2-c2ccc3ncccc3n2)n1 [compound 616452]",
    "AFP expression ratio": 720.03
  }
]
